For each entry below, report its half-life value.
- assaySummary: Half life in Beagle dog at 10 mg/kg, po by LC-MS/MS analysis
- Assay type: ADME, organism-based, Canis lupus familiaris
- conditionContext: in vivo
One number for each entry, in h.

[[record]]
compound = "C=CCN1CC[C@]23c4c5ccc(O)c4O[C@H]2C(=O)CC[C@@]3(O)[C@H]1C5 [NALOXONE]"
val = 8.99


Now for the compound whose half-life we want.
So what does the record say about half-life for CC(C)c1cccc([C@H](C)C2CC2)c1O [CIPEPOFOL] ?
0.44

###

For each entry below, report its Time value.
- Test system: Mus musculus
- assaySummary: Anesthetic activity in ICR mouse assessed as anesthetic duration time at 200 mg equiv/kg parent drug administered via oral gavage
- Format: functional
Answers are plain numbers, in min.

Hi there! I need Time for each item below, if you can.
1. COCP(=O)(N[C@@H](C)C(=O)OCc1ccccc1)Oc1c(C(C)C)cccc1C(C)C (stereo not given in full)
2. CCOC(=O)[C@H](C)NP(=O)(CN1CCOCC1)Oc1c(C(C)C)cccc1C(C)C (stereo not given in full)
3. CCOC(=O)[C@@H](C)NP(=O)(COC)Oc1c(C(C)C)cccc1C(C)C (stereo not given in full)
4. CCOC(=O)[C@H](C)N[P@](=O)(COC)Oc1c(C(C)C)cccc1C(C)C
5. CCOC(=O)[C@H](C)NP(=O)(CO)Oc1c(C(C)C)cccc1C(C)C (stereo not given in full)

94.61
16.18
44.8
40.1
19.19

###

- assaySummary: Half life in Beagle dog at 6.9 mg/kg, po by LC-MS/MS analysis
- conditionContext: in vivo
quantityMeasured: half-life (min)
One number for each entry, in min.

So what does the record say about half-life for CC(C)c1cccc(C(C)C)c1O [PROPOFOL] ?
38.4
